Cited source for all entries: ChEMBL document CHEMBL1121809

System: Rattus norvegicus
Test: Effect on heart rate in rat after an oral dose at 50 mg/kg
Type: functional
Endpoint: Initial heart rate (bts min-1)
Kindly answer with a numeric value in bts min-1, unit omitted.

The recorded Initial heart rate for entry "Cl.O=C1CN2Cc3c(sc4c3CCCC4)N=C2N1" equals 467

The recorded Initial heart rate for entry "Cc1cccc2c1CN1CC(=O)NC1=N2" equals 464

The recorded Initial heart rate for entry O=C1CN2Cc3c(ccc(Cl)c3Cl)N=C2N1 [ANAGRELIDE] equals 377

The recorded Initial heart rate for entry CC1C(=O)NC2=Nc3sc4c(c3CN21)CCCC4.Cl (centres undefined) equals 440

----------
System: Rattus norvegicus
Experiment: Effect on systolic blood pressure in rat after an oral dose at 50 mg/kg (3h after dose)
Assay type: functional, Artery
# Decrease in blood pressure >= 10 gives Met, anything below gives Not met

Query: Check this molecule for Decrease in blood pressure at or above 10: O=C1CN2Cc3c(ccc(Cl)c3Cl)N=C2N1 [ANAGRELIDE]
Result: Met

Query: Check this molecule for Decrease in blood pressure at or above 10: CC1C(=O)NC2=Nc3sc4c(c3CN21)CCCC4.Cl (stereo not given)
Result: Met

Query: Check this molecule for Decrease in blood pressure at or above 10: CN(C(=O)CCCOc1ccc2[nH]c(=O)ccc2c1)C1CCCCC1 [CILOSTAMIDE]
Result: Not met

Query: Check this molecule for Decrease in blood pressure at or above 10: "Cc1cccc2c1CN1CC(=O)NC1=N2"
Result: Met

Query: Check this molecule for Decrease in blood pressure at or above 10: "Cl.O=C1CN2Cc3c(sc4c3CCCC4)N=C2N1"
Result: Not met
